Field: growth. Provide a value for each of the molecules that follow.
- System: SK-MEL-5 melanoma
- TEST_DESCRIPTION: NCI-60 one-dose screen, 48 h (100 = growth as untreated, 0 = no growth, -100 = all killed)
- MEASUREMENT_SETUP: 10 µM unless noted
This is part of a sample that, as a whole, favours compounds with a hit. Of some 83,000 tested, about 20% had one in any assay.
# output: bare number, implied unit %

growth lookup needed for COC(=O)C(Cc1ccccc1)NS(=O)(=O)/N=C1\NC(=O)NC1=C(Cl)Cl (centres undefined) , thanks.
98.1

growth lookup needed for CN1C(=S)N(C)C2C1NN=C1SC(c3ccccc3)=CC(=O)N12 (centres undefined) , thanks.
64.3

growth lookup needed for CCC/C=C/C=C/C(=O)N[C@@H](Cc1cc(F)cc(F)c1)C(=O)N[C@@H]1C(=O)N2CCC[C@H]2C(=O)N2CCCC[C@H]2C(=O)N[C@@H](C)C(=O)N2C[C@H](C)C[C@H]2C(=O)O[C@H]1C , thanks.
10.5

growth lookup needed for N#Cc1nc(-c2ccccc2)oc1S(=O)(=O)N1CCN(CCc2ccccn2)CC1 , thanks.
97.6

growth lookup needed for Nc1nc(N)c2c(n1)NC(c1ccc(F)cc1)CC(c1ccc(Nc3nc(NCCO)nc(Nc4ccc(Cl)cc4)n3)cc1)=N2 (centres undefined) , thanks.
-81

growth lookup needed for Nc1c(C(=O)c2ccc(Br)cc2)oc2nc(-c3cnccn3)cc(-c3cccs3)c12 , thanks.
98

growth lookup needed for N#Cc1nc(-c2ccccc2)oc1N1CC[C@@H](CO)C1 , thanks.
99.6

growth lookup needed for COc1ccccc1C(=O)CSc1nc(Nc2ccc(S(N)(=O)=O)cc2)c2ccccc2n1 , thanks.
91.7

growth lookup needed for CCOC(=O)c1c(Nc2ccccc2)nn2c(N)c(C#N)c(-c3ccccc3)nc12 , thanks.
86.8

----------
- Test system: HCC-2998 colon
- TEST_DESCRIPTION: NCI-60 one-dose screen, 48 h (100 = growth as untreated, 0 = no growth, -100 = all killed)
- MEASUREMENT_SETUP: 10 µM unless noted
The panel holds about 83,000 compounds, 20% with a hit somewhere; the sample as a whole holds those more often.
QUANTITY: growth (%)
# output: bare number, implied unit %

growth lookup needed for C#Cc1nc(C2=C(C)/C(=N/OCc3ccccc3)CC2)cs1 , thanks.
99.8

growth lookup needed for COc1cc(/C=C/C(=O)c2cc(OC)c(OC)c(OC)c2)ccc1OCc1ccc(F)cc1 , thanks.
40.2

growth lookup needed for O=C(c1ccc(O)cc1)C1[C@H](c2ccc(Cl)cc2)[C@@H](c2ccccc2)NC12C(=O)Nc1ccc(Cl)cc12 (some centres not stated) , thanks.
18

growth lookup needed for COc1cc2nc(-c3ccc(C)cc3)cc(OCCCNCC3CCCO3)c2cc1OC (configuration not stated) , thanks.
83.4

growth lookup needed for CC(=O)Oc1ccccc1C(=O)Nc1cc(C(C)C)ccc1C , thanks.
20.5

growth lookup needed for [Cl][Ru].c1ccc(-c2cc(-c3ccccn3)nc(-c3ccccn3)c2)cc1.c1ccc(-c2ccnc3c2ccc2c(-c4ccccc4)ccnc23)cc1 , thanks.
-72.9

growth lookup needed for NS(=O)(=O)c1cccc(Nc2nc(SCC(=O)c3ccc(Cl)cc3)nc3ccccc23)c1 , thanks.
112

growth lookup needed for CC(=O)Oc1ccccc1C(=O)Nc1ccc(C(=O)/C=C/c2cccs2)cc1 , thanks.
109

growth lookup needed for CCOC(=O)c1c(Nc2ccccc2)nn2c(N)c(C#N)c(-c3ccc(OC)cc3)nc12 , thanks.
92.5

growth lookup needed for OC1CCN(CCCOc2c3ccccc3nc3c2oc2ccc(Cl)cc23)CC1 , thanks.
21.9

growth lookup needed for COc1cc(/C=C/C(=O)c2ccc(Cl)cc2)ccc1Oc1nc(NCCO)nc(N2CCOCC2)n1 , thanks.
100

growth lookup needed for COC(=O)c1ccc(NC(=S)N2CCc3ccc([N+](=O)[O-])cc3C2)cc1O , thanks.
110

growth lookup needed for CCOC(=O)c1c(Nc2ccccc2)nn2c(N)c(C#N)c(-c3ccc(Cl)cc3)nc12 , thanks.
83.5

growth lookup needed for CN1C(=S)N(C)C2C1NN=C1SC(c3ccccc3)=CC(=O)N12 (configuration not stated) , thanks.
106

growth lookup needed for O=C1c2c(c3c4cccnc4[nH]c3c3ccc4ccccc4c23)C(=O)N1CCO , thanks.
101

growth lookup needed for O=C(N/N=C/c1ccc([N+](=O)[O-])s1)c1[nH]c2ccc(Br)cc2c1-c1ccccc1 , thanks.
0.797

growth lookup needed for Nc1c(C(=O)Nc2ccc(C(F)(F)F)cc2)sc2nc(-c3cnccn3)cc(-c3cccs3)c12 , thanks.
108

growth lookup needed for NS(=O)(=O)c1cccc(Nc2nc(SCC(=O)c3ccc([N+](=O)[O-])cc3)nc3ccccc23)c1 , thanks.
54.3

growth lookup needed for COc1ccccc1/C=C/C=N/NC1=NC2C(S1)N(C)C(=O)N2C (configuration not stated) , thanks.
68.3

growth lookup needed for CCCCCCNC(=O)Oc1ccc(/C(=C(/C)c2ccccc2)c2ccc(OCCN3CCCCCC3)cc2)cc1 , thanks.
56.7

growth lookup needed for Nc1nc(N)c2c(n1)NC(c1ccc(C(F)(F)F)cc1)CC(c1ccc(Nc3nc(NCCO)nc(Nc4ccc(Cl)cc4)n3)cc1)=N2 (configuration not stated) , thanks.
-86.6

growth lookup needed for CCN1C(=S)N(CC)C2C1N=C(SC)N2/N=C/C=C/c1ccccc1[N+](=O)[O-] (configuration not stated) , thanks.
112

growth lookup needed for O=C(CN1CCOCC1)NNc1ncnc2ccccc12 , thanks.
114

growth lookup needed for CS(=O)(=O)c1ccc(-c2nc3ccccn3c2C=Nc2ccc(Cl)cc2)cc1 , thanks.
95.8

growth lookup needed for N#Cc1nc(-c2ccccc2)oc1S(=O)(=O)N1CCCCC1 , thanks.
105

growth lookup needed for Fc1ccc(-c2cc3nc(C(Cl)Cl)nc(-c4ccccc4)n3n2)cc1 , thanks.
-47.1

growth lookup needed for NC(=O)c1cc(-c2ccc3ncnc(N4CCc5cc(F)c(Cl)cc54)c3c2)cnc1N , thanks.
37.5

growth lookup needed for O=C1Nc2cc(Cl)ccc2/C1=C\c1ccc(OCc2ccc([N+](=O)[O-])cc2)cc1 , thanks.
82.8

growth lookup needed for [Cl][Ru].c1ccc(-c2cccc(-c3ccccn3)n2)nc1.c1ccc(-c2ccnc3c2ccc2c(-c4ccccc4)ccnc23)cc1 , thanks.
31.3

growth lookup needed for CC(C)NC(=O)c1cc(-c2ccc(NC(=O)Nc3ccc(N4CCOCC4)c(C(F)(F)F)c3)cc2)nc2cccnc12 , thanks.
106

growth lookup needed for CC(C)Sc1nc(Nc2ccc(S(N)(=O)=O)cc2)c(C#N)c(-c2ccc(F)cc2)n1 , thanks.
58.8

growth lookup needed for COc1cc(-c2nc3ccc(-c4nnc(SCC(=O)Nc5ccc(C(=O)/C=C/c6ccc(Cl)cc6)cc5)o4)cc3[nH]2)cc(OC)c1OC , thanks.
120

growth lookup needed for C=C1CC[C@H]2[C@@](C)(CCC3OC(c4ccc(OCc5cn(C6CC(OC(C)=O)C(OC(C)=O)C(COC(C)=O)O6)nn5)cc4)OC[C@]32C)[C@@H]1/C=C/C1=CCOC1=O (some centres not stated) , thanks.
100

growth lookup needed for C[C@@H](Nc1c(C#N)cnc2ccc(-c3cnc(N)nc3)cc12)c1ccccc1 , thanks.
32

growth lookup needed for CCOC(=O)c1c(Nc2ccccc2)nn2c(N)c(C#N)c(-c3ccccc3)nc12 , thanks.
97

growth lookup needed for Oc1c(Cl)cc(Cl)c2ccc(CN3CCCCC3)nc12 , thanks.
65

growth lookup needed for CSCCC(C(=O)O)N1C(=O)/C(=C/c2ccc(O)c(O)c2)SC1=S (configuration not stated) , thanks.
108

----------
- Tested on: HOP-62 NSCLC
- TEST_DESCRIPTION: NCI-60 one-dose screen, 48 h
- MEASUREMENT_SETUP: 10 µM unless noted
This is part of a sample that, as a whole, favours compounds with a hit. Of some 83,000 tested, about 20% had one in any assay. Activity calls are given as the source filed them. The calls were made as follows: active = growth percent below 10; inactive = the rest.
Outcomes you can answer with include only these: TRUE = active, FALSE = inactive

GET /call?item= NS(=O)(=O)c1cccc(Nc2nc(SCC(=O)c3ccc([N+](=O)[O-])cc3)nc3ccccc23)c1 returns the recorded outcome of this test.
FALSE

GET /call?item= Clc1ccc(-c2cn3cc(Cc4ccc(Cl)c(Cl)c4)sc3n2)cc1 returns the recorded outcome of this test.
FALSE

GET /call?item= COC(=O)C(C)NS(=O)(=O)/N=C1\NC(=O)NC1=C(Cl)Cl (stereo not drawn) returns the recorded outcome of this test.
FALSE

GET /call?item= COc1ccc(/C=C/C(=O)c2ccc(NC(=O)CSc3nnc(-c4ccc5nc(-c6ccc(Cl)cc6)[nH]c5c4)o3)cc2)cc1 returns the recorded outcome of this test.
FALSE

GET /call?item= CS(=O)(=O)c1ccc(-c2nc3ccccn3c2-c2nc3ccc([N+](=O)[O-])cc3[nH]2)cc1 returns the recorded outcome of this test.
FALSE

GET /call?item= COc1ccc(/C=N/NC(=O)c2[nH]c3ccc(Br)cc3c2-c2ccccc2)o1 returns the recorded outcome of this test.
FALSE

GET /call?item= COc1ccc(C(=O)/C=C/c2ccc(OCc3ccc(Cl)cc3)c(OC)c2)cc1OC returns the recorded outcome of this test.
FALSE

GET /call?item= O=C(CSc1nnc(-c2ccc3nc(-c4ccc(Cl)cc4)[nH]c3c2)o1)Nc1ccc(C(=O)/C=C/c2ccc(Cl)cc2)cc1 returns the recorded outcome of this test.
FALSE

GET /call?item= CC(=O)Oc1ccccc1C(=O)Nc1ccc(C(=O)/C=C/c2ccncc2)cc1 returns the recorded outcome of this test.
FALSE

GET /call?item= Cc1ccc(-c2nc(C(Cl)Cl)nc3cc(-c4ccccc4)nn23)cc1 returns the recorded outcome of this test.
TRUE

GET /call?item= Clc1ccc2c(OCCCN3CCOCC3)c3oc4ccccc4c3nc2c1 returns the recorded outcome of this test.
FALSE

GET /call?item= Cn1c(SCC(=O)Nc2ccc(-c3nc4ccc([N+](=O)[O-])cc4[nH]3)cc2)nc2ccccc2c1=O returns the recorded outcome of this test.
FALSE

GET /call?item= CCOC(=O)c1sc(NCC(=O)Nc2cccc([N+](=O)[O-])c2)c(C(=O)OCC)c1C returns the recorded outcome of this test.
TRUE

GET /call?item= c1ccc(CNc2ncnc3ccc(-c4cnc5[nH]ncc5c4)cc23)cc1 returns the recorded outcome of this test.
FALSE

GET /call?item= COc1ccc(C(=O)/C=C/c2ccc(OCc3ccc(C)cc3)c(OC)c2)cc1OC returns the recorded outcome of this test.
FALSE

GET /call?item= C/C(=N\NC(N)=O)c1c(O)sc(=O)[nH]c1=O returns the recorded outcome of this test.
FALSE

GET /call?item= COc1ccc(N/N=C/c2c(-c3ccc(S(C)(=O)=O)cc3)nc3ccccn23)cc1 returns the recorded outcome of this test.
FALSE

GET /call?item= Cc1ccccc1NC(=O)/C=C/c1ccc(OCCOc2ccc3c(C)cc(=O)oc3c2)cc1 returns the recorded outcome of this test.
FALSE

GET /call?item= COc1cc(/C=C/C(=O)c2ccc(C)cc2)ccc1Oc1nc(NCCO)nc(N2CCOCC2)n1 returns the recorded outcome of this test.
FALSE

GET /call?item= C#Cc1nc(C2=C(C)C(=N\O)/C(=N/O)C2)cs1 returns the recorded outcome of this test.
FALSE

GET /call?item= Clc1ccc2c(NCCCn3ccnc3)c3oc4ccccc4c3nc2c1 returns the recorded outcome of this test.
FALSE

GET /call?item= O=C(N/N=C/c1ccc(Br)s1)c1[nH]c2ccc(Br)cc2c1-c1ccccc1 returns the recorded outcome of this test.
FALSE

GET /call?item= CN(C)CCCOc1c2ccccc2nc2c1oc1ccc(Cl)cc12 returns the recorded outcome of this test.
FALSE

GET /call?item= CN1CCc2c(sc3ncnc(N/N=C/c4ccc(Cl)c(Cl)c4)c23)C1 returns the recorded outcome of this test.
FALSE

GET /call?item= COc1cc(/C=C/C(=O)c2cc(OC)c(OC)c(OC)c2)ccc1Oc1nc(NCCO)nc(N2CCOCC2)n1 returns the recorded outcome of this test.
TRUE

GET /call?item= COc1cc(/C=C/C(=O)c2ccc(C(F)(F)F)cc2)ccc1Oc1nc(NCCO)nc(N2CCOCC2)n1 returns the recorded outcome of this test.
FALSE

GET /call?item= Cc1cccc(/C=C/c2nn3c(-c4ccco4)nnc3s2)c1 returns the recorded outcome of this test.
FALSE

GET /call?item= CCN1C(=S)N(CC)C2C1NN=C1SC(c3ccccc3)=CC(=O)N12 (stereo not drawn) returns the recorded outcome of this test.
FALSE

GET /call?item= COc1ccc(CNS(=O)(=O)/N=C2\NC(=O)NC2=C(Cl)Cl)cc1 returns the recorded outcome of this test.
FALSE

GET /call?item= CN(C)CCCNc1c2ccccc2nc2c1oc1ccc(Cl)cc12 returns the recorded outcome of this test.
FALSE

GET /call?item= CCC/C=C/C=C/C(=O)N[C@@H](Cc1cc(F)cc(F)c1)C(=O)N[C@@H]1C(=O)N2CCC[C@H]2C(=O)N2CCCC[C@H]2C(=O)N[C@@H](C)C(=O)N2C[C@H](C)C[C@H]2C(=O)O[C@H]1C returns the recorded outcome of this test.
FALSE

GET /call?item= COc1cc(/C=C/C(=O)c2ccc(Cl)cc2)ccc1Oc1nc(NCCO)nc(N2CCOCC2)n1 returns the recorded outcome of this test.
FALSE

GET /call?item= Cc1cc(=O)oc2cc(OCCCOc3ccc(/C=C/C(=O)Nc4ccc(Cl)cc4)cc3)ccc12 returns the recorded outcome of this test.
FALSE

GET /call?item= NS(=O)(=O)c1ccc(Nc2nc(SCC(=O)c3ccc(Cl)cc3)nc3ccccc23)cc1 returns the recorded outcome of this test.
FALSE

GET /call?item= CCOC(=O)c1c(Nc2ccccc2)nn2c(N)c(C#N)c(-c3ccc(Cl)cc3)nc12 returns the recorded outcome of this test.
FALSE

GET /call?item= CS(=O)(=O)c1ccc(-c2nc3ccccn3c2C=Nc2ccc(Cl)cc2)cc1 returns the recorded outcome of this test.
FALSE

GET /call?item= COc1ccc(NC(=O)c2sc3nc(-c4cnccn4)cc(-c4cccs4)c3c2N)cc1 returns the recorded outcome of this test.
FALSE

GET /call?item= C=CCSc1ccc2c(c1)C(N1CCNCC1)=Nc1ccccc1O2 returns the recorded outcome of this test.
FALSE

Cited source: PubChem BioAssay (NCI)
